- TGT: yeast Rtt109–Vps75 (Saccharomyces cerevisiae)
- Sequence (Q07794 whole entry): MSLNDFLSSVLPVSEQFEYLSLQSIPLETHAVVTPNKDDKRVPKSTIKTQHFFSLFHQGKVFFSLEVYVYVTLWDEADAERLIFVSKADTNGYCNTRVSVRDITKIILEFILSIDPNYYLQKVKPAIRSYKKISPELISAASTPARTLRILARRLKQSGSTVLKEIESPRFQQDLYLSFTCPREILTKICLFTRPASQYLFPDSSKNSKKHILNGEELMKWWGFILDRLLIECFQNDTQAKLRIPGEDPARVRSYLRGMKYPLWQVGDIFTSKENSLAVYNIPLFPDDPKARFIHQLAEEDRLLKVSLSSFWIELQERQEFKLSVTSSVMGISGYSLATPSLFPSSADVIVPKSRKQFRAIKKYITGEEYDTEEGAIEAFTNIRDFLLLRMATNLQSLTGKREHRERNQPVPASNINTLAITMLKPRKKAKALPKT
- Sequence (P53853 whole entry partner): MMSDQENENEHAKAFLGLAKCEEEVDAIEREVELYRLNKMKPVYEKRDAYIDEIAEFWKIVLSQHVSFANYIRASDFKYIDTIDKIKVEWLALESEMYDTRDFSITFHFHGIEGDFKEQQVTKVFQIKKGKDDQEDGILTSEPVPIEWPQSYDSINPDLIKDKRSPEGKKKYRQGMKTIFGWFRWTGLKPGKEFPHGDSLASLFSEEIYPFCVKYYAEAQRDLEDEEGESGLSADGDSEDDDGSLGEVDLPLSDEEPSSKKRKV
- ASSAY_NOTES: [3H]-acetyl-CoA HAT assay, Rtt109
- Assay type: biochemical
- APPLIED_CONDITIONS: 1 mM DTT; results similar versus Rtt109-Vps75, p300, and Gcn5
QUANTITY_NAME: (+) DTT IC50 effect

Some compounds with known (+) DTT IC50 effect results, for comparison:
>  <COMPOUND>
O=C(O)c1ccc(-n2nnnc2SC2=CS(=O)(=O)c3ccccc32)cc1 [1a]

>  <RESULT>
increase

$$$$
>  <COMPOUND>
O=C(O)CCSc1cc(NS(=O)(=O)c2ccc(Br)cc2)c2ccccc2c1O [6a]

>  <RESULT>
increase

$$$$
>  <COMPOUND>
O=C(O)CSc1cc(NS(=O)(=O)c2ccc(C(=O)O)cc2)c2ccccc2c1O [6c]

>  <RESULT>
increase

$$$$
>  <COMPOUND>
O=S(=O)(Nc1cc(Cl)c(O)c2ccccc12)c1ccc(Br)cc1 [6e]

>  <RESULT>
increase

$$$$
>  <COMPOUND>
O=C1CC(Sc2nnc(-c3ccccc3O)o2)C(=O)N1c1ccc(Br)cc1 (stereo not shown) [4a]

>  <RESULT>
increase

$$$$

Return reported (+) DTT IC50 effect; argument: O=[N+]([O-])c1cc(Br)c2nsnc2c1Sc1ncnc2[nH]cnc12 [2a]
increase
